FYI, the data here is from patent US20220064275A1.

Recorded Kd for the following binders
Molecular target: T1, human LTBP3-proTGFβ1 complex (human, UniProt Q9NS15 866-1039)
T1 construct: range 866-1039; also called hLTBP3-proTGFβ1; hLTBP3
T1 sequence (Q9NS15 866-1039 limits assumed, chain 1 of 2): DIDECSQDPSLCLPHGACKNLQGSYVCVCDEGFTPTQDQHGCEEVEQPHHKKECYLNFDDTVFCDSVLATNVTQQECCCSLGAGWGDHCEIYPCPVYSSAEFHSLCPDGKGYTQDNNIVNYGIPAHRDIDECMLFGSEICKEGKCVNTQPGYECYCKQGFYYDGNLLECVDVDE
T1 sequence (chain, as listed by the source limits assumed, chain 2 of 2): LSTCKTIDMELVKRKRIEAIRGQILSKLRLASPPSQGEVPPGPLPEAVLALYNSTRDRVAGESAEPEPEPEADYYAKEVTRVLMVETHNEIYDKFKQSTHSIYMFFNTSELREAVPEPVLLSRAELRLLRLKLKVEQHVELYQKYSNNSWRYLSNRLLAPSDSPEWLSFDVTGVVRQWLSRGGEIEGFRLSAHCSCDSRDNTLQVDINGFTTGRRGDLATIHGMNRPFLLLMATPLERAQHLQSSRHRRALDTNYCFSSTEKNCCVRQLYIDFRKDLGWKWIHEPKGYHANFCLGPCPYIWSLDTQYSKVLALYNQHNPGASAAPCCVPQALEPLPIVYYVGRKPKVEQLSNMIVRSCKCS
Assay: MSD-SET, solution equilibrium titration
Reply with just the number (in nM).

* Ab22 (antibody, IgG4, V domains shown) VH: EVQLVESGGGLVQPGGSLRLSCAASGFTFGSFSMNWVRQAPGKGLEWVSYIHSDASTIYYADSVKGRFTISRDNAKNSLYLQMNSLRAEDTAVYYCARGVLDYGDMLDPWGQGTLVTVSS VL: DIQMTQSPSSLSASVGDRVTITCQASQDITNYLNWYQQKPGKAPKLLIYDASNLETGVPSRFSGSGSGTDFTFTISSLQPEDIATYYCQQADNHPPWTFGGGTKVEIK | 0.033

Alright, here's another binder for you.
[Q] Determine from records and report Kd for Ab12 (antibody, IgG4, V domains shown) VH: QVQLVESGGGVVQPGRSLRLSCAASGFTFSDYAMVWVRQAPGKGLEWVSAISGSGFTTYYADSVKGRFTISRDNSKNTLYLQMNSLRAEDTAVYYCARVSSGHWDFDYWGQGTLVTVSS VL: DIQLTQSPSSLSASVGDRVTITCRASQSISSYLNWYQQKPGKAPKLLIYAASNLQSGVPSRFSGSGSGTDFTLTISSLQPEDFATYYCQQTYTVPLTFGGGTKVEIK
[A] 0.66
